Hi there, I'd appreciate the recorded self-cleavage kobs at 2500 uM GlcN6P for every entry that follows.
B1: glmS ribozyme (parent)
chain: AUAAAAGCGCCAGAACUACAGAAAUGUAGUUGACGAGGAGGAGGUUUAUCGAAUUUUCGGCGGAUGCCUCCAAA

Variants of: B1
PROCEDURE DETAILS: self-cleavage kobs at 2500 uM GlcN6P; higher = faster cleavage; RNA array
APPLIED CONDITIONS: with glucosamine-6-phosphate
Variants at the floor of the assay were thinned out.

A14U C70U = 0.00724 s⁻¹

Dear colleague, could you please provide self-cleavage kobs at 2500 uM GlcN6P for the variants listed below?
1. U31G G35C
2. A12U C58U C61G G62C A64G U65A G66U C67G U69C C70U
3. G13A U30A U31A A42C U46G
4. C11U C34G U54C
5. G37A A52G
6. U49G G66C
7. G7A A52C

Result:
1. < 1e-05 s⁻¹
2. 7.58e-05 s⁻¹
3. < 1e-05 s⁻¹
4. < 1e-05 s⁻¹
5. 6.77e-05 s⁻¹
6. < 1e-05 s⁻¹
7. < 1e-05 s⁻¹
